System: Rattus norvegicus
Assay: In vivo anti-oxytocic activity in rat uterus
Type: functional, organism-based
Details: read-out: pA2 (converted)
VALUE_TYPE: Kb (nM)
One number for each entry, in nM.

Some entries whose results are on file:
query_smiles=CC(C)[C@@H]1NC(=O)[C@H](Cc2ccccc2)NC(=O)[C@@H](C(C)C)NC(=O)CC2(CCCCC2)SSC[C@@H](C(=O)N2CCC[C@H]2C(=O)N[C@@H](CCCN=C(N)N)C(=O)NCC(N)=O)NC(=O)[C@H](CC(N)=O)NC1=O value_type=Kb unit_symbol=nM readout_number=3240
query_smiles=CC(C)C[C@H]1NC(=O)CC2(CCCCC2)SSC[C@@H](C(=O)N2CCC[C@H]2C(=O)N[C@@H](CCCN=C(N)N)C(=O)NCC(N)=O)NC(=O)[C@H](CC(N)=O)NC(=O)[C@H](C(C)C)NC(=O)[C@H](Cc2ccccc2)NC1=O value_type=Kb unit_symbol=nM readout_number=891

Note: attention shifts to another entry.
The recorded Kb for CC(C)[C@@H]1NC(=O)[C@H](Cc2ccccc2)NC(=O)[C@@H](Cc2ccc(O)cc2)NC(=O)CC2(CCCCC2)SSC[C@@H](C(=O)N2CCC[C@H]2C(=O)N[C@H](CCCN=C(N)N)C(=O)NCC(N)=O)NC(=O)[C@H](CC(N)=O)NC1=O is 117
